subject_of_test: human MC1R (Homo sapiens)
Construct: expressed in transfected cells
Sequence (Q01726 whole entry): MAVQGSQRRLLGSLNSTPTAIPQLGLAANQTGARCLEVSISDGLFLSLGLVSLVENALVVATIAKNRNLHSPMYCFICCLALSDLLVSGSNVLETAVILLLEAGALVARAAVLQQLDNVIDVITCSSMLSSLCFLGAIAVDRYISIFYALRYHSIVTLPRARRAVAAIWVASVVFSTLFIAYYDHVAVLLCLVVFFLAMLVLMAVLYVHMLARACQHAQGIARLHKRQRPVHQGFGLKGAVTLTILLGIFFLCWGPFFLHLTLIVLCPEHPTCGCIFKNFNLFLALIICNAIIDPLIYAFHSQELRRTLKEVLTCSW
assay_text: Functional cAMP assay (CisBio HTRF) in BHK cells expressing human MC1R
Assay type: cell-based
recorded_conditions: BHK cells expressing human MC1R; '>' = highest dose used with no response; read-out: MC1R cAMP EC50
Positions of bridges follow the written chain, without caps; N, C: chain ends. Non-standard residues stand in square brackets, D forms with d. Residues, ends and D or L forms follow the SMILES beside them. Phe(3,4-(OMe)2) = COc1ccc(C[C@H](N)C(=O)O)cc1OC; Hyp = O=C(O)[C@@H]1C[C@@H](O)CN1
Listed next: entries and their corresponding EC50.

Request: Please look up its EC50: C[C@@H]1NC(=O)[C@@H]2CSSC[C@H](NC(=O)[C@H](Cc3c[nH]c4ccccc34)NC(=O)[C@H](CNC(=N)N)NC(=O)[C@@H](Cc3ccccc3)NC(=O)[C@H](Cc3c[nH]cn3)NC1=O)C(=O)N[C@@H](C)C(=O)N[C@@H](Cc1c[nH]cn1)C(=O)N[C@H](Cc1ccccc1)C(=O)N[C@@H](CNC(=N)N)C(=O)N[C@@H](Cc1c[nH]c3ccccc13)C(=O)N2 [Chem. 42]
Response: > 100 nM

Request: // next record COc1ccc(C[C@@H]2NC(=O)[C@H](CCCNC(=N)N)NC(=O)[C@@H](Cc3ccccc3)NC(=O)[C@H](Cc3c[nH]cn3)NC(=O)[C@H](C)NC(=O)[C@@H]3CSSC[C@H](NC2=O)C(=O)N[C@@H](C)C(=O)N[C@@H](CCCCN)C(=O)N[C@@H](CCCCN)C(=O)N[C@@H](CCCCN)C(=O)N[C@@H](Cc2c[nH]c4ccccc24)C(=O)N3)cc1OC [Chem. 67] (cyclo(AH[dF]R[Phe(3,4-(OMe)2)]CAKKKWC); disulfide 6-12)
Response: > 55 nM

Request: // next record C[C@@H]1NC(=O)[C@@H]2CSSC[C@H](NC(=O)[C@H](Cc3c[nH]c4ccccc34)NC(=O)[C@H](CCCNC(=N)N)NC(=O)[C@@H](Cc3ccccc3)NC(=O)[C@@H]3C[C@@H](O)CN3C1=O)C(=O)N[C@@H](C)C(=O)N1C[C@H](O)C[C@H]1C(=O)N[C@H](Cc1ccccc1)C(=O)N[C@@H](CCCNC(=N)N)C(=O)N[C@@H](Cc1c[nH]c3ccccc13)C(=O)N2 [Chem. 14] (cyclo(A[Hyp][dF]RWCA[Hyp][dF]RWC); disulfide 6-12)
Response: > 10 nM

----------
Listed next: entries and their corresponding MC1R/MC4R cAMP EC50 ratio.
subject_of_test: human MC4R (Homo sapiens)
Construct: expressed in transfected cells
Sequence (P32245 whole entry): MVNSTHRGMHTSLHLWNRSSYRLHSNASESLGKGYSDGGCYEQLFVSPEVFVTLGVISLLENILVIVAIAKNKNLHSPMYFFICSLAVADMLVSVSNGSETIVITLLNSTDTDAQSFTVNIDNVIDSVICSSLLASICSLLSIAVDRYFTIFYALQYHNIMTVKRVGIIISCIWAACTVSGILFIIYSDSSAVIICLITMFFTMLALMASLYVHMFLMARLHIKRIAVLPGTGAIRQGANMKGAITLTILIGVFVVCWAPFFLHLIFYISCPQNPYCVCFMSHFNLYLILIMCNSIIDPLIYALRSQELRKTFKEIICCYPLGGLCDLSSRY
assay_text: Functional cAMP assay (CisBio HTRF) in BHK cells expressing human MC4R
Format: cell-based
recorded_conditions: MC1R cAMP EC50 divided by MC4R cAMP EC50
Experimental: In order to assess the potency of the compounds on human MC1R and human MC4R cAMP signalling was measured. cAMP induction was measured by c-AMPdynamic2 assay, HTRF 62AM4PEC system from CisBio for the human MC1R and human MC4R according to the protocol provided by the vendor. BHK cells expressing the human MC1 or MC4 receptor were generated by stable transfection with expression vectors encoding the cDNA of either MC1R or MC4R. […]
Positions of bridges follow the written chain, without caps; N, C: chain ends. Non-standard residues stand in square brackets, D forms with d. Residues, ends and D or L forms follow the SMILES beside them. Phe(3,4-(OMe)2) = COc1ccc(C[C@H](N)C(=O)O)cc1OC

compound: C[C@@H]1NC(=O)[C@@H]2CSSC[C@H](NC(=O)[C@H](Cc3c[nH]c4ccccc34)NC(=O)[C@H](CCCNC(=N)N)NC(=O)[C@H](Cc3ccccc3)NC(=O)[C@H](Cc3c[nH]cn3)NC1=O)C(=O)N[C@@H](C)C(=O)N[C@@H](Cc1c[nH]cn1)C(=O)N[C@@H](Cc1ccccc1)C(=O)N[C@@H](CCCNC(=N)N)C(=O)N[C@@H](Cc1c[nH]c3ccccc13)C(=O)N2 [Chem. 56]
MC1R/MC4R cAMP EC50 ratio: 80

compound: O=C(O)CC[C@@H]1NC(=O)[C@@H]2CSSC[C@H](NC(=O)[C@H](Cc3c[nH]c4ccccc34)NC(=O)[C@H](Cc3c[nH]cn3)NC(=O)[C@@H](Cc3ccccc3)NC(=O)[C@H](Cc3c[nH]cn3)NC1=O)C(=O)N[C@@H](CCC(=O)O)C(=O)N[C@@H](Cc1c[nH]cn1)C(=O)N[C@H](Cc1ccccc1)C(=O)N[C@@H](Cc1c[nH]cn1)C(=O)N[C@@H](Cc1c[nH]c3ccccc13)C(=O)N2 [Chem. 53] (cyclo(CEH[dF]HWCEH[dF]HW); disulfide 1-7)
MC1R/MC4R cAMP EC50 ratio: >1

Request: Tell me reported MC1R/MC4R cAMP EC50 ratio for COc1ccc(C[C@@H]2NC(=O)[C@H](CCCNC(=N)N)NC(=O)[C@@H](Cc3ccccc3)NC(=O)[C@H](Cc3c[nH]cn3)NC(=O)[C@H](C)NC(=O)[C@@H]3CSSC[C@H](NC2=O)C(=O)N[C@@H](C)C(=O)N[C@@H](CCCCN)C(=O)N[C@@H](CCCCN)C(=O)N[C@@H](CCCCN)C(=O)N[C@@H](Cc2c[nH]c4ccccc24)C(=O)N3)cc1OC [Chem. 67] (cyclo(AH[dF]R[Phe(3,4-(OMe)2)]CAKKKWC); disulfide 6-12) , tested with human MC4R (Homo sapiens).
Response: >18
